# Test system: barnyardgrass (Echinochloa crus-galli)
# ASSAY_NOTES: Test A preemergence barnyardgrass
# Assay type: in vivo
# MEASUREMENT_SETUP: 500 g ai/ha, 0 to 100 scale, 0 no effect, 100 complete control
ATTRIBUTE_MEASURED: Barnyardgrass plant response rating
Enter the number alone.

See these solved cases before continuing.
{"columns": ["COMPOUND", "TARGET_ENTITY", "Barnyardgrass plant response rating"],
 "data": [
  ["O=C1NCCC(c2cccc(OC(F)F)c2)C1C(=O)Nc1ccccc1F (racemic) [Compound 45]", "barnyardgrass (Echinochloa crus-galli)", 70],
  ["O=C1NCCC(c2cccc(OC(F)(F)F)c2)C1C(=O)Nc1ccccc1F (racemic) [Compound 37]", "barnyardgrass (Echinochloa crus-galli)", 70],
  ["O=C1NCC[C@@H](c2cccc(C(F)(F)F)c2)[C@@H]1C(=O)Nc1cccc(F)c1F [Compound 20]", "barnyardgrass (Echinochloa crus-galli)", 90],
  ["O=C1NCCC(c2cccc(C(F)F)c2)C1C(=O)Nc1ccc(F)c(F)c1F (stereo not drawn) [Compound 47]", "barnyardgrass (Echinochloa crus-galli)", 90]
]}

Report Barnyardgrass plant response rating for O=C1NCCC(c2cccc(Cl)c2)C1C(=O)Nc1ccccc1C(F)(F)F (racemic) [Compound 33]
90

Report Barnyardgrass plant response rating for Cc1c(F)cccc1NC(=O)C1C(=O)NCCC1c1cccc(C(F)(F)F)c1 (racemic) [Compound 26]
90

Report Barnyardgrass plant response rating for O=C1NCC[C@@H](c2ccc(C(F)(F)F)cc2)[C@@H]1C(=O)Nc1ccc(F)c(F)c1F [Compound 55]
0

Report Barnyardgrass plant response rating for CS(=O)(=O)c1ccccc1NC(=O)C1C(=O)NCCC1c1cccc(C(F)(F)F)c1 (racemic) [Compound 32]
90

Report Barnyardgrass plant response rating for O=C1NCC[C@@H](c2cccc(C(F)(F)F)c2)[C@@H]1C(=O)Nc1cccc(Cl)c1F [Compound 24]
80

Report Barnyardgrass plant response rating for O=C1NCC[C@@H](c2cccc(C(F)(F)F)c2)[C@@H]1C(=O)Nc1ccc(F)c(F)c1F [Compound 29]
20

Report Barnyardgrass plant response rating for O=C1NCCC(c2cccc(OC(F)(F)F)c2)C1C(=O)Nc1cccc(F)c1F (racemic) [Compound 39]
90

----------
# Test system: corn (Zea mays)
# ASSAY_NOTES: Test A postemergence corn
# Type: in vivo
# MEASUREMENT_SETUP: 500 g ai/ha, 0 to 100 scale, 0 is no effect, 100 is complete control
ATTRIBUTE_MEASURED: Plant response rating, Corn
Enter the number alone.

See these solved cases before continuing.
{"columns": ["COMPOUND", "TARGET_ENTITY", "ATTRIBUTE_MEASURED", "QUANTITATIVE_RESULT"],
 "data": [
  ["O=C1NCCC(c2cccc(OC(F)(F)F)c2)C1C(=O)Nc1ccccc1F (racemic) [Compound 37]", "corn (Zea mays)", "Plant response rating, Corn", 0],
  ["O=C1NCC[C@@H](c2cccc(C(F)(F)F)c2)[C@@H]1C(=O)Nc1ccc(F)c(F)c1F [Compound 29]", "corn (Zea mays)", "Plant response rating, Corn", 0],
  ["O=C1NCCC(c2ccccc2)C1C(=O)Nc1ccccc1C(F)(F)F (racemic) [Compound 2]", "corn (Zea mays)", "Plant response rating, Corn", 0],
  ["O=C1NCCC(c2cccc(OC(F)(F)F)c2)C1C(=O)Nc1cccc(F)c1F (racemic) [Compound 39]", "corn (Zea mays)", "Plant response rating, Corn", 50],
  ["O=C1NCCC(c2ccc(C(F)(F)F)cc2)C1C(=O)Nc1cccc(F)c1Cl (racemic) [Compound 15]", "corn (Zea mays)", "Plant response rating, Corn", 0]
]}

Report Plant response rating, Corn for O=C1NCC[C@@H](c2ccc(C(F)(F)F)cc2)[C@@H]1C(=O)Nc1ccc(F)c(F)c1F [Compound 55]
0

Report Plant response rating, Corn for O=C1NCCC(c2cccc(C(F)(F)F)c2)C1C(=O)Nc1cccc(Cl)c1F (racemic) [Compound 16]
30

Report Plant response rating, Corn for O=C1NCCC(c2ccccc2C(F)(F)F)C1C(=O)Nc1cccc(F)c1F (racemic) [Compound 8]
0

----------
# Tested on: ducksalad (Heteranthera limosa)
# ASSAY_NOTES: Test B flooded paddy test ducksalad
# Type: in vivo
# MEASUREMENT_SETUP: Table B, Flood, 500 g ai/ha, scale 0 to 100
ATTRIBUTE_MEASURED: Plant response rating
Enter the number alone.

See these solved cases before continuing.
{"columns": ["COMPOUND", "TARGET_ENTITY", "ATTRIBUTE_MEASURED", "QUANTITATIVE_RESULT"],
 "data": [
  ["O=C1NCCC(c2cccc(C(F)(F)F)c2)C1C(=O)Nc1cccc(F)c1Cl (racemic)", "ducksalad (Heteranthera limosa)", "Plant response rating", 60],
  ["O=C1NCCC(c2cccc(C(F)(F)F)c2)C1C(=O)Nc1cccc(Cl)c1F (racemic)", "ducksalad (Heteranthera limosa)", "Plant response rating", 0],
  ["Cc1c(F)cccc1NC(=O)C1C(=O)NCCC1c1cccc(C(F)(F)F)c1 (racemic)", "ducksalad (Heteranthera limosa)", "Plant response rating", 50],
  ["O=C1NCCC(c2cccc(OC(F)F)c2)C1C(=O)Nc1ccccc1F (racemic)", "ducksalad (Heteranthera limosa)", "Plant response rating", 50],
  ["O=C1NCCC(c2cccc(C(F)(F)F)c2)C1C(=O)Nc1ccc(F)c(F)c1F (racemic)", "ducksalad (Heteranthera limosa)", "Plant response rating", 85]
]}

Report Plant response rating for O=C1NCCC(c2cccc(Cl)c2)C1C(=O)Nc1ccccc1C(F)(F)F (racemic)
80

Report Plant response rating for O=C1NCCC(c2ccc(C(F)(F)F)cc2)C1C(=O)Nc1cccc(F)c1Cl (racemic)
60

Report Plant response rating for CS(=O)(=O)c1ccccc1NC(=O)C1C(=O)NCCC1c1cccc(C(F)(F)F)c1 (racemic)
40

----------
# Tested on: ducksalad (Heteranthera limosa)
# ASSAY_NOTES: Test C flooded paddy test ducksalad
# Assay type: in vivo
# MEASUREMENT_SETUP: Table C, Flood, 125 g ai/ha, scale 0 to 100
molecules and their reported Plant response rating
Enter the number alone.

{"columns": ["MOLECULE", "TARGET_ENTITY", "Plant response rating"],
 "data": [
  ["O=C1NCCC(c2cccc(C(F)(F)F)c2)C1C(=O)Nc1cccc(Cl)c1F (racemic)", "ducksalad (Heteranthera limosa)", 0],
  ["O=C1NCCC(c2ccc(C(F)(F)F)cc2)C1C(=O)Nc1cccc(F)c1F (centres unmarked)", "ducksalad (Heteranthera limosa)", 30],
  ["O=C1NCCC(c2ccc(C(F)(F)F)cc2)C1C(=O)Nc1ccccc1C(F)(F)F (racemic)", "ducksalad (Heteranthera limosa)", 0]
]}

Under ducksalad (Heteranthera limosa), report Plant response rating for O=C1NCCC(c2cccc(C(F)(F)F)c2)C1C(=O)Nc1ccc(F)c(F)c1F (racemic)
60

Under ducksalad (Heteranthera limosa), report Plant response rating for O=C1NCCC(c2cccc(C(F)(F)F)c2)C1C(=O)Nc1cccc(F)c1Cl (racemic)
0

----------
molecules and their reported Plant response rating, Wheat
# Test system: wheat (Triticum aestivum)
# ASSAY_NOTES: Test A postemergence wheat
# Format: in vivo
# MEASUREMENT_SETUP: 500 g ai/ha, 0 to 100 scale, 0 is no effect, 100 is complete control
Enter the number alone.

Report Plant response rating, Wheat for O=C1NCC[C@@H](c2cccc(C(F)(F)F)c2)[C@@H]1C(=O)Nc1cccc(Cl)c1F
30

Report Plant response rating, Wheat for O=C(Nc1ccccc1C(F)(F)F)C1C(=O)N(Cc2ccccc2)CCC1c1ccc(F)cc1 (centres unmarked)
0

Report Plant response rating, Wheat for O=C1NCC[C@@H](c2cccc(Cl)c2)[C@@H]1C(=O)Nc1cccc(F)c1F
0

Report Plant response rating, Wheat for O=C1NCCC(c2ccccc2C(F)(F)F)C1C(=O)Nc1cccc(F)c1F (racemic)
0

Report Plant response rating, Wheat for O=C1NCCC(c2cccc(C(F)(F)F)c2)C1C(=O)Nc1ccc(F)cc1F (racemic)
0

Report Plant response rating, Wheat for O=C1NCCC(c2cccc(OC(F)(F)F)c2)C1C(=O)Nc1cccc(F)c1F (racemic)
30

Report Plant response rating, Wheat for O=C1NCCC(c2cccc(C(F)F)c2)C1C(=O)Nc1ccc(F)c(F)c1F (centres unmarked)
30

Report Plant response rating, Wheat for CS(=O)(=O)c1ccccc1NC(=O)C1C(=O)NCCC1c1cccc(C(F)(F)F)c1 (racemic)
0

----------
# Tested on: ducksalad (Heteranthera limosa)
# ASSAY_NOTES: Test B flooded paddy test ducksalad
# Assay type: in vivo
# MEASUREMENT_SETUP: Table B, Flood, 250 g ai/ha, scale 0 to 100
# Procedure: Plant species in the flooded paddy test selected from rice (Oryza sativa), sedge, umbrella (small-flower umbrella sedge, Cyperus difformis), ducksalad (Heteranthera limosa), and barnyardgrass (Echinochloa crus-galli) were grown to the 2-leaf stage for testing. […] Treated plants and controls were maintained in a greenhouse for 13 to 15 d, after which time all species were compared to controls and visually evaluated. […]
ATTRIBUTE_MEASURED: Plant response rating
Enter the number alone.

See these solved cases before continuing.
{"columns": ["MOLECULE", "Plant response rating"],
 "data": [
  ["O=C1NCC[C@@H](c2cccc(Cl)c2)[C@@H]1C(=O)Nc1cccc(F)c1F [Compound 43]", 0],
  ["O=C(Nc1ccccc1C(F)(F)F)C1C(=O)N(Cc2ccccc2)CCC1c1ccc(F)cc1 (stereo not drawn) [Compound 51]", 0]
]}

Moving on to the next molecule.
Report Plant response rating for O=C1NCCC(c2ccccc2)C1C(=O)Nc1ccccc1F (racemic) [Compound 3]
0
